Where these numbers come from: the RNAGym collection of RNA variant scans (doi:10.1073/pnas.2313332121)

B1: TPR t1 (parent)
chain: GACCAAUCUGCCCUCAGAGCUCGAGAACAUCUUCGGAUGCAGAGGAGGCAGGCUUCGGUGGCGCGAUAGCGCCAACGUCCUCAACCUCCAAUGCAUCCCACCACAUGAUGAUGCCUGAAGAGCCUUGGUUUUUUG

# Variants of: B1
# method: polymerase ribozyme fitness, log enrichment relative to wild type (log ratio); higher = more active; in vitro selection for triplet polymerase activity
property: polymerase ribozyme fitness (log ratio)
Output spec: single numeric token, no unit.

GACCAAACUGCCCUCAGAGCUCGAGAACAUCUUCGGAUGCAGAGGAGGCAGGUUUCGGUGGCGCGAUAGCGCUAACGUCCUCAACUUCCGAUGCAUCCCACCACAUGAUGAUGCCUGAAGAACCUUGGUUUUUUG [U7A C53U C73U C86U A90G G122A] = -2.05
GACCAAUCUGCCCUCAGAGCUCGAGAACAUCUUCGGAUGCAGAGGAGGCAGGCUUCGGUGGCGCGAUAGCGCCAACGUCCUCAACCUCCAAUGCAUUCCACCACAAGAUGAUGCCUGAAGAGCCUUGGUUUGAUG [C97U U106A U132G U133A] = 0.00837
GACCAAUCUGCCCUCAGAGCUCGAGAACAUCUUCGGAUGCAGAGGAGGCAAGAUUCGGUGACGCGAUAGCGCUAACGUCCUCAACCUCCAAUGCAUCCCACCACAUGAUGAUGCCUGAAGAGCCUUGGUUUUAUG [G51A C53A G61A C73U U133A] = -2.11
GAACAAUCUGCCCUCAGAGCUCGAGAACAUCUUCGGAUGCAGAGGAGGCAGGCUUAGGUGGCGCGAUAGCGCCAACGUCCUCAACCUCAAAUGCAUCCCACCACAUGAUGAUGCUUGAAGAGCCUUGGUUUUUUG [C3A C56A C89A C115U] = -3.79
GACCAAUCGGCCGUCAGAGCUCGAGAACAUCUUCGGAUGCAGAGGAGGCAGGCUUCGGUGGCGCGAUAGCGCCAACGUCCUCAACCUCCAAUGCAUCCCACCACAUGAUGAUGCCUGAAGAGCCUUGGUUUUUUG [U9G C13G] = 0.0659
GACCAAUCUGCCCUCAGAGCUCGAGAACAUCUUCGGAUGCAGAGGAGGCAGGUUUCGGUCGCGCGAUAGCGCCAACGUCCUCAACCACCAAUGCAUCCCACCACAUGAUGAUGCCUGAAGAGCCUUGGUUUUUUG [C53U G60C U87A] = -1.09
GACCAAUCUGCCCUCAGAGCUCGAGAACAUCUUCGGAUGCAGGGGAGGCAGGCUUCGCUAGCGCGAUAGCGCCAACGUCCUCAACCUCCAAUGCAUCCCACCACAUGAUGAUGCCUGAAGAGCCUUGGUUUUUUG [A43G G58C G60A] = -2.53
GACCAAUCUGCCCUCAGAGCUCUAGAACAUCUUCGGAUGCAGAGGAGGCAGGCUUCGGUGGCCCGAUAGCGCCAACGUCCUCAACCUCCAAUGCAUCCCACCACAUGAUGAUGCCUGAAGAGCCUUGGUUUUUUG [G23U G63C] = -6.19

GACCAAUCUGCCCUCAGAGCUCGAGAUCAUCUUCGGAUGCAGAGGUGGCAGGCUUCGGUGGCGCGAUAGCGCCAACGUCCUCAACCUCCAAUGCAUCCCACCACAUGAUGAUGCCUGAAGAGCCUUGGUUUUUUG [A27U A46U] has a reported polymerase ribozyme fitness (log ratio) of -4.77

GACCAAUCUGCCCUCAGAGCUCGAGAACAUCUUCGGAUGCAGAGGAGGCAGGCUUCGGUGGCGCGAUAGCUCCAACGUCCUCAGCCUCCAAUGCAUCCCACCACAUGAUGAUGCCUGAAGAGCCUCGGUUUUAUG [G71U A84G U126C U133A] has a reported polymerase ribozyme fitness (log ratio) of -2.74

GACCAAUCUGCGCUCAGAGCUCGAGAACUUCUUCGGAUUCAGAGGAGGCAGGCUGCGGUGGCGCGAUAGCGCCAACGUCCUCAACCUCCAAUGCAUCCCACCACAUGAUGAUGCCUGAAGAGCCUUGGUUUUUUG [C12G A29U G39U U55G] has a reported polymerase ribozyme fitness (log ratio) of -2.45

GACCAAUCUGCCCUCAGAGCUCGAGAACAUCUUCGGAUGCAGAGGAGGCAGGCUUCGCUGGCGCGAUAGCGCCAACGUCCUCAACCUCCAAUGCAUCCCACCACAUGAUGAUGCCUGAAGAGCCUCGGUUUUUUG [G58C U126C] has a reported polymerase ribozyme fitness (log ratio) of -1.22
